half-life at 0.5 μM overview
- Experimental Protocol: Human liver microsome stability assay
- Type: in vitro ADME
- Reported Conditions: both sexes, human, microsomes, pH 7.4
Test Readout: half-life at 0.5 μM (min)

Compound	Qualifier Symbol	Recorded Value
CCS(=O)(=O)Nc1ccc(Oc2ccc(F)cc2F)c(-c2cn(C)c(=O)c3[nH]cc(C=O)c23)c1 [Example 349]	>	120
CCS(=O)(=O)Nc1cc(-c2cn(C)c(=O)c3[nH]ccc23)c(Oc2ccc(F)cc2F)cc1C#N [Example 324]	>	120
CCNC(=O)Cc1ccc(OCc2ccccc2)c(-c2cn(C)c(=O)c3[nH]ccc23)c1 [Example 46]	=	10
Cn1cc(-c2cc(C(=O)N3CCOCC3)ccc2Oc2ccc(F)cc2F)c2cc[nH]c2c1=O [Example 56]	=	39
Cn1cc(-c2cc(S(C)(=O)=O)ccc2OCC2CCCCC2)c2cc[nH]c2c1=O [Example 224]	=	6
Cn1cc(-c2cc(S(N)(=O)=O)cnc2OCC2CC2)c2cc[nH]c2c1=O [Example 207]	=	102
Cn1cc(-c2cc(NS(C)(=O)=O)cc(Cl)c2Oc2ccccc2)c2cc[nH]c2c1=O [Example 28]	=	21
Cn1cc(-c2cc(C(=O)NCC(F)F)ccc2Oc2ccccc2)c2cc[nH]c2c1=O [Example 16]	>	120
Cn1cc(-c2ccccc2C(=O)N2CCOCC2)c2cc[nH]c2c1=O [Example 61]	>	120
Cn1cc(-c2cc(S(C)(=O)=O)ccc2Oc2cccc(N)c2)c2cc[nH]c2c1=O [Example 166]	=	85
Cn1cc(-c2cc(CS(C)(=O)=O)ccc2NCC2CC2)c2cc[nH]c2c1=O [Example 328]	>	120
Cn1cc(-c2cc(S(C)(=O)=O)ccc2Oc2ccc3cccnc3c2)c2cc[nH]c2c1=O [Example 188]	=	26
CC(C)COc1ccc(S(C)(=O)=O)cc1-c1cn(C)c(=O)c2[nH]ccc12 [Example 221]	=	63
Cn1cc(-c2cc(S(C)(=O)=O)ccc2Oc2ccc3ncccc3c2)c2cc[nH]c2c1=O [Example 162]	=	96
CCS(=O)(=O)C(C)(C)c1ccc(Oc2ccc(F)cc2F)c(-c2cn(C)c(=O)c3[nH]ccc23)c1 [Example 298]	=	9
CCS(=O)(=O)c1ccc(O[C@H]2CC[C@H](OC)CC2)c(-c2cn(C)c(=O)c3[nH]ccc23)c1 [Example 260]	=	34
Cn1cc(-c2cc(S(=O)(=O)C(F)(F)F)ccc2OCC2CC2)c2cc[nH]c2c1=O [Example 243]	>	120
CC(C)c1ccc(Oc2ccc(S(C)(=O)=O)cc2-c2cn(C)c(=O)c3[nH]ccc23)cc1 [Example 192]	=	9
CN(C)CCNC(=O)c1ccc(Oc2ccc(F)cc2F)c(-c2cn(C)c(=O)c3[nH]ccc23)c1 [Example 131]	>	120
CC(C)S(=O)(=O)c1ccc(NCC2CC2)c(-c2cn(C)c(=O)c3[nH]ccc23)c1 [Example 261]	=	25
CCCS(=O)(=O)Nc1ccc(Oc2c(F)cc(F)cc2F)c(-c2cn(C)c(=O)c3[nH]ccc23)c1 [Example 94]	=	47
Cn1cc(-c2cc(C(=O)N3CCCC3)ccc2Oc2ccc(F)cc2F)c2cc[nH]c2c1=O [Example 55]	=	25
CCS(=O)(=O)Nc1ccc(OC2CCCOC2)c(-c2cn(C)c(=O)c3[nH]ccc23)c1 (centres unmarked) [Example 105]	>	120
CCOC(=O)N1CCC(Oc2ccc(S(=O)(=O)CC)cc2-c2cn(C)c(=O)c3[nH]ccc23)CC1 [Example 301]	=	20
COc1ccc2[nH]cc(CCNC(=O)c3ccc(Oc4ccc(F)cc4F)c(-c4cn(C)c(=O)c5[nH]ccc45)c3)c2c1 [Example 124]	=	2
CCCS(=O)(=O)Nc1ccc(Oc2ccc(C#N)cc2)c(-c2cn(C)c(=O)c3[nH]ccc23)c1 [Example 93]	=	54
CCS(=O)(=O)Nc1ccc(Oc2ccc(F)cc2F)c(-c2nn(C)c(=O)c3[nH]ccc23)c1 [Example 160]	=	67
Cn1cc(-c2cc(S(C)(=O)=O)ccc2OCC2CC2)c2cc[nH]c2c1=O [Example 158]	>	120
Cn1cc(-c2cc(S(C)(=O)=O)ccc2Oc2ccc(CC(N)=O)cc2)c2cc[nH]c2c1=O [Example 165]	>	120

###

- Experimental Protocol: Human liver microsome stability assay
- Format: in vitro ADME
- Reported Conditions: both sexes, human, microsomes, pH 7.4
Test Readout: half-life at 0.5 μM (min)

Molecule	Qualifier Symbol	Recorded Value
CCS(=O)(=O)c1ccc(OCC2CC2(F)F)c(-c2cn(C)c(=O)c3[nH]c(C(=O)NCC(F)(F)F)cc23)c1 (stereo not shown)	>	120
CCS(=O)(=O)c1ccc(OC2CCN(C)CC2)c(-c2cn(C)c(=O)c3[nH]ccc23)c1	>	120
Cn1cc(-c2cc(C(=O)N3CCC(NC(=O)OC(C)(C)C)CC3)ccc2Oc2ccc(F)cc2F)c2cc[nH]c2c1=O	=	8
Cn1cc(-c2cc(CO)ccc2Oc2ccccc2)c2cc[nH]c2c1=O	=	18
Cn1cc(-c2cc(CN3CCCS3(=O)=O)ccc2Oc2ccccc2)c2cc[nH]c2c1=O	=	13.6
Cn1cc(-c2cc(NS(=O)(=O)CC(F)(F)F)ccc2OC2CCCOC2)c2cc[nH]c2c1=O (stereo not shown)	=	71
Cn1cc(-c2cc(S(C)(=O)=O)ccc2Oc2ccc(F)cc2F)c2cc(CNC3CCOC3)[nH]c2c1=O (stereo not shown)	=	12

###

half-life at 0.5 μM overview
- Experimental Protocol: Rat liver microsome stability assay
- Format: in vitro ADME
- Reported Conditions: rat liver microsomes (male Sprague-Dawley), 0.5 μM test compound, 0.25 mg/mL microsomal protein, pH 7.4, 37° C.; read-out: Stability in rat liver microsomes (t1/2 in minutes)
Test Readout: half-life at 0.5 μM (min)

Molecule	Test Readout	Measurement Unit	Qualifier Symbol	Recorded Value
CCS(=O)(=O)c1ccc(O[C@H]2CC[C@H](O)CC2)c(-c2cn(C)c(=O)c3[nH]ccc23)c1 [Example 203]	half-life at 0.5 μM	min	>	120
Cn1cc(-c2cc(C(=O)NC3CCOC3)ccc2Oc2ccc(F)cc2F)c2cc[nH]c2c1=O (stereo not shown) [Example 51]	half-life at 0.5 μM	min	=	63
COC(=O)c1cc2c(-c3ccccc3Oc3ccccc3)cn(C)c(=O)c2[nH]1 [Example 67]	half-life at 0.5 μM	min	=	5
Cn1cc(-c2cc(S(C)(=O)=O)ccc2Nc2ccc(F)cc2)c2cc[nH]c2c1=O [Example 332]	half-life at 0.5 μM	min	=	70
CN(C)Cc1cc2c(-c3cc(S(C)(=O)=O)ccc3Oc3ccc(F)cc3F)cn(C)c(=O)c2[nH]1 [Example 279]	half-life at 0.5 μM	min	=	41
CCS(=O)(=O)Nc1ccc(Oc2ccc(F)cc2F)c(-c2cn(C)c(=O)c3[nH]cc(C=O)c23)c1 [Example 349]	half-life at 0.5 μM	min	=	39
Cn1cc(-c2cc(S(C)(=O)=O)ccc2Oc2ccc(S(C)(=O)=O)cc2)c2cc[nH]c2c1=O [Example 270]	half-life at 0.5 μM	min	>	120
CCS(=O)(=O)N(CC1CCCO1)c1ccc(Oc2ccc(F)cc2F)c(-c2cn(C)c(=O)c3[nH]ccc23)c1 (stereo not shown) [Example 345]	half-life at 0.5 μM	min	=	4
CC(C)c1ccc(Oc2ccc(S(C)(=O)=O)cc2-c2cn(C)c(=O)c3[nH]ccc23)cc1 [Example 192]	half-life at 0.5 μM	min	=	5
CCS(=O)(=O)Nc1ccc(OC2CCOCC2)c(-c2cn(C)c(=O)c3[nH]ccc23)c1 [Example 109]	half-life at 0.5 μM	min	=	61
Cn1cc(-c2cc(NS(=O)(=O)CC(F)(F)F)ccc2Oc2ccccc2)c2cc[nH]c2c1=O [Example 5]	half-life at 0.5 μM	min	=	6
Cn1nc(-c2cc(NS(C)(=O)=O)ccc2Oc2ccccc2)c2cc[nH]c2c1=O [Example 80]	half-life at 0.5 μM	min	=	2
CCS(=O)(=O)Nc1ccc(OC2CCC(F)(F)CC2)c(-c2cn(C)c(=O)c3[nH]ccc23)c1 [Example 101]	half-life at 0.5 μM	min	=	12
CCS(=O)(=O)Nc1ccc(Oc2cncnc2)c(-c2cn(C)c(=O)c3[nH]ccc23)c1 [Example 141]	half-life at 0.5 μM	min	=	110
Cn1cc(-c2cc(S(C)(=O)=O)ccc2Oc2ccccc2)c2cc[nH]c2c1=O [Example 85]	half-life at 0.5 μM	min	=	6
Cn1cc(-c2cc(N3CCCS3(=O)=O)ccc2Oc2ccc(F)cc2F)c2cc[nH]c2c1=O [Example 43]	half-life at 0.5 μM	min	=	2

###

Ki overview
- Assay Target: human BRD4 first bromodomain (BDI_K57-E168) (Homo sapiens (Human))
- Experimental Protocol: TR-FRET bromodomain binding assay, BRD4 first bromodomain
Test Readout: Ki (nM)

Compound	Measurement Unit	Recorded Value
CCS(=O)(=O)Nc1ccc(Oc2ccc(F)cc2F)c(-c2cn(C)c(=O)c3[nH]c(CN4CCN(C)CC4)cc23)c1	nM	0.8
CCS(=O)(=O)c1ccc(OC2CCN(C(=O)OC(C)(C)C)CC2)c(-c2cn(C)c(=O)c3[nH]ccc23)c1	nM	14.1
CCS(=O)(=O)Nc1ccc(OC2CCCOC2)c(-c2cn(C)c(=O)c3[nH]ccc23)c1 (stereo not drawn)	nM	0.52
